molecular target: human 5-HT2B receptors (Homo sapiens, UniProt P41595); construct: expressed in transfected cells; host or cells: CHO cell line; experiment: Binding to 5-HT2B receptor, [3H]-5-HT, Method (b); conditions: human 5-HT2B in CHO cell line, read-out: Ki (2B)
Sequence (P41595 whole entry): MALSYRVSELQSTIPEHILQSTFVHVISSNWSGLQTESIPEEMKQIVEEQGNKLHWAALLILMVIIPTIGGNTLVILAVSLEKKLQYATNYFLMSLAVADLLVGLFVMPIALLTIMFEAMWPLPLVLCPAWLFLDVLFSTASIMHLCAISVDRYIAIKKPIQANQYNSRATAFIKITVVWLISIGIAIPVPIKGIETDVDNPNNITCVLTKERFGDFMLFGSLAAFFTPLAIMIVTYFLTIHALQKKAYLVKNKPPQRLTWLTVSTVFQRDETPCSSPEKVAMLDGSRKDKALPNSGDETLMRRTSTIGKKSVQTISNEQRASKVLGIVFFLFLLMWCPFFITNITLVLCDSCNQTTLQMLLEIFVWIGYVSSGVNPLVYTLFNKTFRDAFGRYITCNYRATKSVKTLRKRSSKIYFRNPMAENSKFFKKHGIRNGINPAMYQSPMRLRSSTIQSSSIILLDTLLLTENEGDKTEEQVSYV
Examples of compounds with documented Ki follow.
OBSERVED_PROPERTY: Ki (nM)

COMPOUND | REPORTED_MEASUREMENT
Cc1c(F)cnc2c1C[C@@H]1CNC[C@@H](C)N21 [Example 80] | 87
CO[C@H](C)c1nc2c(cc1Cl)C[C@@H]1CNC[C@@H](C)N21 [Example 46] | 84
C[C@@H]1CNC[C@H]2Cc3cc(Cl)c(C(F)F)nc3N21 [Example 23] | 12
